- tgt: OsSMF1 (Oryza sativa, UniProt Q6ZLB0 1-436)
- Sequence: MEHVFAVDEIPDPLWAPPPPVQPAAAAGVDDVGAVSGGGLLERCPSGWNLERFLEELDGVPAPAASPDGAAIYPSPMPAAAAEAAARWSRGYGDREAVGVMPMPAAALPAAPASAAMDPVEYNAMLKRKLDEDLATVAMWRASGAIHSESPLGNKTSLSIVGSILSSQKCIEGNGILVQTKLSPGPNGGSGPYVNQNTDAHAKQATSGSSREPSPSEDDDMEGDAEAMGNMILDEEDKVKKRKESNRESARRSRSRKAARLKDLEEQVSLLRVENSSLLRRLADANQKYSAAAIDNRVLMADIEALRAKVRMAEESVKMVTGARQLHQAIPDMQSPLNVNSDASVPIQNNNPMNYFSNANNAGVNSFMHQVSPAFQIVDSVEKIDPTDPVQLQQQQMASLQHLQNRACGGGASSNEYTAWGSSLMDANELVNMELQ
- protocolSummary: protein-binding microarray (RPBM); PBS, 2% BSA, 51.3 ng/ul salmon testes DNA, 50 uM zinc acetate, 200 nM TF, 25 C, 1 h; high values mean tight binding
- testConditions: protein: recombinant; tags: N-terminal polyhistidine and DsRed monomer fusion (pET32a); chain copies: 2; label: CyDye5-dUTP incorporated in the synthesized complementary strand; 3' TTTTT single-stranded linker to array surface; dsDNA, one strand shown
Whole data set: some 39,000 sequences, median “fluorescence intensity (a.u.)” near 4,300, cut for the highest 2% near 39,000. For the sample, the highest values were picked, then their nearest neighbours and some sequences at random.
measuredQuantity: binding signal

Exercise: Tell me reported binding signal for AAGAACGCCTTCGCGTGGGCCGCCGTCATCGGGATGTGGACGGAGTCACCTAGTGCAG , tested with OsSMF1 (Oryza sativa, UniProt Q6ZLB0 1-436).
Key: 3220 fluorescence intensity (a.u.)

Exercise: Tell me reported binding signal for TTGGCCGGTAACGCGTCATGACTCATGAGCTACTGGACTTCGGAGTCACCTAGTGCAG , tested with OsSMF1 (Oryza sativa, UniProt Q6ZLB0 1-436).
Key: 9990 fluorescence intensity (a.u.)

Exercise: Tell me reported binding signal for AAGCTTACAACATGTTCTATAATTTATTTAATTCTACAAACGGAGTCACCTAGTGCAG , tested with OsSMF1 (Oryza sativa, UniProt Q6ZLB0 1-436).
Key: 45700 fluorescence intensity (a.u.)

Exercise: Tell me reported binding signal for CAGTTGACCGCCACGTAGAACCTGTTCCTCCAGCTCACCACGGAGTCACCTAGTGCAG , tested with OsSMF1 (Oryza sativa, UniProt Q6ZLB0 1-436).
Key: 9340 fluorescence intensity (a.u.)

Exercise: Tell me reported binding signal for AAAGTAGTTTTACACGTAAATCGGGCGCTGACGTTATCAGCGGAGTCACCTAGTGCAG , tested with OsSMF1 (Oryza sativa, UniProt Q6ZLB0 1-436).
Key: 5310 fluorescence intensity (a.u.)

Exercise: Tell me reported binding signal for GTCAAAGTTATAAAAGTTTGACCTCAACTTTGTCCAAAACCGGAGTCACCTAGTGCAG , tested with OsSMF1 (Oryza sativa, UniProt Q6ZLB0 1-436).
Key: 24200 fluorescence intensity (a.u.)

Exercise: Tell me reported binding signal for AGGACACGTAGCATTTCCTCCTCAAGCAAGAGGAGCAGTACGGAGTCACCTAGTGCAG , tested with OsSMF1 (Oryza sativa, UniProt Q6ZLB0 1-436).
Key: 4000 fluorescence intensity (a.u.)

Exercise: Tell me reported binding signal for CCGGGGTGTCAGAAATCCAGGCCCACCCGTCAGCGACGCGCGGAGTCACCTAGTGCAG , tested with OsSMF1 (Oryza sativa, UniProt Q6ZLB0 1-436).
Key: 4130 fluorescence intensity (a.u.)

Exercise: Tell me reported binding signal for CTTAAAGCAGTTTGACTTTGACCAAAGTCAAAACGTCTTACGGAGTCACCTAGTGCAG , tested with OsSMF1 (Oryza sativa, UniProt Q6ZLB0 1-436).
Key: 40600 fluorescence intensity (a.u.)

Exercise: Tell me reported binding signal for TTCATATCATATACGTACACGTGGAATAATTTGTAATTATCGGAGTCACCTAGTGCAG , tested with OsSMF1 (Oryza sativa, UniProt Q6ZLB0 1-436).
Key: 9010 fluorescence intensity (a.u.)

====

- tgt: OsSMF1 (Oryza sativa, UniProt Q6ZLB0 1-436)
- Sequence: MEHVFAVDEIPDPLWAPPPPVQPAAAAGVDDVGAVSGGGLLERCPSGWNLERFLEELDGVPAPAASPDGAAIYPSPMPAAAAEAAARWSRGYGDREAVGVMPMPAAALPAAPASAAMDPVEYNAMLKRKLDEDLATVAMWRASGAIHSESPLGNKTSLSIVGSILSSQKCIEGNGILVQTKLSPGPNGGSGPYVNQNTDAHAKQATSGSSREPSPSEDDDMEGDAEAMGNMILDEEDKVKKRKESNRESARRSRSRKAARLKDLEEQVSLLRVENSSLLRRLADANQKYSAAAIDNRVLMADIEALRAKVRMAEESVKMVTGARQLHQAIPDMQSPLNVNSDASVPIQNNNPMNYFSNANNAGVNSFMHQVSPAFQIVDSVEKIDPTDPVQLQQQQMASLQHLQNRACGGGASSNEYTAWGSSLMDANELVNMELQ
- protocolSummary: protein-binding microarray (RPBM); PBS, 2% BSA, 51.3 ng/ul salmon testes DNA, 50 uM zinc acetate, 200 nM TF, 25 C, 1 h; high values mean tight binding
- testConditions: protein: recombinant; tags: N-terminal polyhistidine and DsRed monomer fusion (pET32a); chain copies: 2; label: CyDye5-dUTP incorporated in the synthesized complementary strand; 3' TTTTT single-stranded linker to array surface; dsDNA, one strand shown
In all, about 39,000 sequences were measured (“fluorescence intensity (a.u.)”: median about 4,300, highest 2% from about 39,000 on). The full list was thinned out, with the highest values kept by preference.
measuredQuantity: binding signal

Exercise: Would you kindly share the measured binding signal for TAAATTTTAATTTTCTGATTGGTATGCCACGTTAGTGAAACGGAGTCACCTAGTGCAG ?
Key: 3420 fluorescence intensity (a.u.)

Exercise: Would you kindly share the measured binding signal for GGGCTCCCTCCACCGCCGCCTCCGCCACCGCCTCGCCGCCCGGAGTCACCTAGTGCAG ?
Key: 3150 fluorescence intensity (a.u.)

Exercise: Would you kindly share the measured binding signal for CACCCGCCATCGTGGCGGACATTCCAGTATAGGTACGGCACGGAGTCACCTAGTGCAG ?
Key: 6150 fluorescence intensity (a.u.)

Exercise: Would you kindly share the measured binding signal for GGCGGCGTTCGCGGCGGCGACGTGGGCGTACCTGACGGCGCGGAGTCACCTAGTGCAG ?
Key: 3590 fluorescence intensity (a.u.)

Exercise: Would you kindly share the measured binding signal for TCTCAACCCTCAGGTAATCTACTGCTGCGCGTGGTGAATCCGGAGTCACCTAGTGCAG ?
Key: 4080 fluorescence intensity (a.u.)

Exercise: Would you kindly share the measured binding signal for CCACCGCCGCCACACAGTCCGCTTCGGTTCCCCGTTTCCGCGGAGTCACCTAGTGCAG ?
Key: 65500 fluorescence intensity (a.u.)

Exercise: Would you kindly share the measured binding signal for CAAATACTACATCACACAGGTCAGCAGAAATTTCACTCTTCGGAGTCACCTAGTGCAG ?
Key: 4100 fluorescence intensity (a.u.)

Exercise: Would you kindly share the measured binding signal for ACACATTCCATATCCTTGGACTAATTCACGAGACGAATCTCGGAGTCACCTAGTGCAG ?
Key: 40900 fluorescence intensity (a.u.)

Exercise: Would you kindly share the measured binding signal for TTGGACAAATCATTTGGCAAAATTTCAAAGTTTTGAATCTCGGAGTCACCTAGTGCAG ?
Key: 28600 fluorescence intensity (a.u.)

Exercise: Would you kindly share the measured binding signal for CTCTTCAGGGAACAGAATCAAATCAGCATTTTAACTAACTCGGAGTCACCTAGTGCAG ?
Key: 40100 fluorescence intensity (a.u.)

Exercise: Would you kindly share the measured binding signal for TTTGGTTTCCGGCCAAACATTGCCACGCCTAACTTAAGGCCGGAGTCACCTAGTGCAG ?
Key: 5170 fluorescence intensity (a.u.)

Exercise: Would you kindly share the measured binding signal for CTAGAGGAAGTGGGGAAGCCGACGACCCCACGTCTCGCCACGGAGTCACCTAGTGCAG ?
Key: 3940 fluorescence intensity (a.u.)

Exercise: Would you kindly share the measured binding signal for TAGTCCTCCTTGGCTACGGTGTCATAGATCGAGGCCTCCGCGGAGTCACCTAGTGCAG ?
Key: 50200 fluorescence intensity (a.u.)

Exercise: Would you kindly share the measured binding signal for CCACATCGGATGCCACGTCAGCCCTAGCCACATCAGCGCACGGAGTCACCTAGTGCAG ?
Key: 38500 fluorescence intensity (a.u.)

Exercise: Would you kindly share the measured binding signal for GAACGGTCAAATAGCCGTTAGTGCCACGTGGCGCCTTCCCCGGAGTCACCTAGTGCAG ?
Key: 25100 fluorescence intensity (a.u.)

Exercise: Would you kindly share the measured binding signal for CTCTGCTCTCAAATGCTCTGTGTGCGATCAGGTATTCATGCGGAGTCACCTAGTGCAG ?
Key: 3270 fluorescence intensity (a.u.)

Exercise: Would you kindly share the measured binding signal for GCCCGCCCGTCCCGTCCGACGTCCGCGTCACGCACGCGCGCGGAGTCACCTAGTGCAG ?
Key: 7940 fluorescence intensity (a.u.)

Exercise: Would you kindly share the measured binding signal for ACACACACACACACCCACCACACCACCCCGGCCGCTTCCGCGGAGTCACCTAGTGCAG ?
Key: 3210 fluorescence intensity (a.u.)

Exercise: Would you kindly share the measured binding signal for AAATTGAGTTGAAAATTTTCAAATCTCGACTTGAAAGTTTCGGAGTCACCTAGTGCAG ?
Key: 21800 fluorescence intensity (a.u.)

Exercise: Would you kindly share the measured binding signal for AATGCCAAGTGGCAGCCTATGAGCGTTTGTAGCATGCCATCGGAGTCACCTAGTGCAG ?
Key: 41200 fluorescence intensity (a.u.)

Exercise: Would you kindly share the measured binding signal for TTGTCGCGATGTGCCCCTTCTACGGGGTGCCACGTCACATCGGAGTCACCTAGTGCAG ?
Key: 39500 fluorescence intensity (a.u.)

Exercise: Would you kindly share the measured binding signal for ACGCGCGGGCGTGGCTGACGTGGCCCGGAGAAGGCGGAGGCGGAGTCACCTAGTGCAG ?
Key: 5770 fluorescence intensity (a.u.)

Exercise: Would you kindly share the measured binding signal for TGTGGACAATGCTAGAAAGTCTTACATTGTCAAACGGATGCGGAGTCACCTAGTGCAG ?
Key: 39500 fluorescence intensity (a.u.)

Exercise: Would you kindly share the measured binding signal for CGTTGCGCACGTACAGCTCACGCTCAAGTCGTACACATTACGGAGTCACCTAGTGCAG ?
Key: 3840 fluorescence intensity (a.u.)

Exercise: Would you kindly share the measured binding signal for AAGCCTAAAACCTCCCCATCCACGTCACCCATCCTCCTCCCGGAGTCACCTAGTGCAG ?
Key: 22300 fluorescence intensity (a.u.)

Exercise: Would you kindly share the measured binding signal for TGGCCATCGCCTACGGTGAGCAGTCATCGTCGTCCATCCGCGGAGTCACCTAGTGCAG ?
Key: 4090 fluorescence intensity (a.u.)

Exercise: Would you kindly share the measured binding signal for TGAGTGAATACACAGTACTATGACGACGATAAGGTTGGGGCGGAGTCACCTAGTGCAG ?
Key: 32700 fluorescence intensity (a.u.)

Exercise: Would you kindly share the measured binding signal for CTTCCCGCCGCCGCCACTGCCACGAACAGTTCGCTCACCGCGGAGTCACCTAGTGCAG ?
Key: 3200 fluorescence intensity (a.u.)

Exercise: Would you kindly share the measured binding signal for TTCTTATTGTCTTAGCTACAAACGATCCATACAAACATTGCGGAGTCACCTAGTGCAG ?
Key: 4240 fluorescence intensity (a.u.)

Exercise: Would you kindly share the measured binding signal for TGTACACGCGCAGGGCGGCCCTGGCGTTGCTGACGTGGCGCGGAGTCACCTAGTGCAG ?
Key: 42500 fluorescence intensity (a.u.)

Exercise: Would you kindly share the measured binding signal for ATCAAAATGGCAACAAAAGGGAGTCCAAAGTGAAAATTTTCGGAGTCACCTAGTGCAG ?
Key: 36100 fluorescence intensity (a.u.)

Exercise: Would you kindly share the measured binding signal for TAGCCGTTAGTGCCACGTGGCGCCTTCCCATTCGACCGCCCGGAGTCACCTAGTGCAG ?
Key: 40600 fluorescence intensity (a.u.)

Exercise: Would you kindly share the measured binding signal for TATATACAAGTTCACCCCGAAACCTAGTCAGAGTATGACACGGAGTCACCTAGTGCAG ?
Key: 4240 fluorescence intensity (a.u.)
